Data provenance is ChEMBL document CHEMBL3526056.

# Test Summary: Fraction unbound in human kidney microsomes at 5 uM after 30 to 60 mins by LC-MS/MS analysis in presence of 2% bovine serum albumin
Endpoint Name: fraction unbound at 5 µM
Respond with the number and no other words.

Memo: CC(C)c1cccc(C(C)C)c1O [PROPOFOL] , reported fraction unbound at 5 µM: 0.25

----------
# Test Summary: Fraction unbound in human liver microsomes at 1 uM after 30 to 60 mins by LC-MS/MS analysis
# Type: ADME
fraction unbound at 1 µM values, listed per item
The answer should be written as a number, with no unit following it.

Solved entries (count: 4):
C=CCN1CC[C@]23c4c5ccc(O)c4O[C@H]2C(=O)CC[C@@]3(O)[C@H]1C5 [NALOXONE] :: 1
O=C1[C@H](CC[C@H](O)c2ccc(F)cc2)[C@@H](c2ccc(O)cc2)N1c1ccc(F)cc1 [EZETIMIBE] :: 0.3
O=C(O)Cc1ccccc1Nc1c(Cl)cccc1Cl [DICLOFENAC] :: 0.98
CCCc1nc2c(C)cc(-c3nc4ccccc4n3C)cc2n1Cc1ccc(-c2ccccc2C(=O)O)cc1 :: 0.65

Recorded result, COc1c(C)c2c(c(O)c1C/C=C(\C)CCC(=O)O)C(=O)OC2 [MYCOPHENOLIC ACID] , fraction unbound at 1 µM: 0.83

Summary for this compound, Cc1ccc(C)c(OCCCC(C)(C)C(=O)O)c1 [GEMFIBROZIL] : fraction unbound at 1 µM is 0.9

----------
# Test Summary: Clearance in iv dosed human
# Type: ADME, organism-based
# Condition Summary: in vivo
Known clearance of a selection of compounds
Answer with the value and then the unit.

CC(C)c1cccc(C(C)C)c1O [PROPOFOL] :: 27.7 mL/min/kg
CCCc1nc2c(C)cc(-c3nc4ccccc4n3C)cc2n1Cc1ccc(-c2ccccc2C(=O)O)cc1 :: 12.3 mL/min/kg
O=C(O)Cc1ccccc1Nc1c(Cl)cccc1Cl [DICLOFENAC] :: 4.84 mL/min/kg

Value of measured clearance for the entry C=CCN1CC[C@]23c4c5ccc(O)c4O[C@H]2C(=O)CC[C@@]3(O)[C@H]1C5 [NALOXONE] : 21.7 mL/min/kg

So for COc1c(C)c2c(c(O)c1C/C=C(\C)CCC(=O)O)C(=O)OC2 [MYCOPHENOLIC ACID] , the logged clearance turned out to be 2.49 mL/min/kg

----------
Let's look at some compounds and their measured CLhep predicted.
# Test Summary: Glucuronidation clearance in human liver microsomes in presence of bovine serum albumin
# Type: ADME
Give the number; mL/min/kg is assumed, so skip it.

CCCc1nc2c(C)cc(-c3nc4ccccc4n3C)cc2n1Cc1ccc(-c2ccccc2C(=O)O)cc1 :: 9.93
CC(C)c1cccc(C(C)C)c1O :: 14.7
C=CCN1CC[C@]23c4c5ccc(O)c4O[C@H]2C(=O)CC[C@@]3(O)[C@H]1C5 :: 19.3
Cc1ccc(C)c(OCCCC(C)(C)C(=O)O)c1 :: 1.93

Now turn to the next compound.
Noted for "COc1c(C)c2c(c(O)c1C/C=C(\C)CCC(=O)O)C(=O)OC2" : its CLhep predicted reads 3.97

----------
# Test Summary: Unbound intrinsic glucuronidation clearance in human kidney microsomes at 1 uM after 30 to 60 mins by LC-MS/MS analysis in presence of UDP-glucuronosyltransferase and 1% bovine serum albumin
# Format: ADME, microsome
As shown below, each of these compounds has a reported CL free value.
Quick reminder: number only, in µL/min/mg, skip the unit.

Below are worked cases with known answers.
Cc1ccc(C)c(OCCCC(C)(C)C(=O)O)c1 [GEMFIBROZIL] :: 1910
COc1c(C)c2c(c(O)c1C/C=C(\C)CCC(=O)O)C(=O)OC2 [MYCOPHENOLIC ACID] :: 1370
O=C(O)Cc1ccccc1Nc1c(Cl)cccc1Cl [DICLOFENAC] :: 543

Pending compound:
Looking up "CCCc1nc2c(C)cc(-c3nc4ccccc4n3C)cc2n1Cc1ccc(-c2ccccc2C(=O)O)cc1" , I see its CL free listed as 34.3
